Source: ChEMBL document CHEMBL1154678

Target: Monoglyceride lipase (Homo sapiens, UniProt Q99685)
Sequence (Q99685 whole entry): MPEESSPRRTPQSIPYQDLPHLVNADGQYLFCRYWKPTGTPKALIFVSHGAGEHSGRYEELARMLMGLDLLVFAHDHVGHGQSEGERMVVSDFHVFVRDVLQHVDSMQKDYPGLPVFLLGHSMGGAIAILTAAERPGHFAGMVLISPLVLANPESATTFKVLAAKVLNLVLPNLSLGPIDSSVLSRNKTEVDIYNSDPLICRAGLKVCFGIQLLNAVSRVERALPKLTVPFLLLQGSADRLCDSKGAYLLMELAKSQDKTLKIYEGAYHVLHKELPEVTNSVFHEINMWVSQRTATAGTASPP
Experiment: Inhibition of human recombinant MGL using 2-oleoylglycerol by competitive hydrolysis assay
Details: read-out: IC50
measured attribute: pIC50
Scale note: pIC50 = -log10(concentration in M).

Some molecules with known pIC50 results, for comparison:
C=CCCCC(=O)N1C[C@@H]([C@@H](C)OC(=O)CCCc2ccccc2)C1=O    5.07
C=CCCCC(=O)N1C[C@@H]([C@@H](C)OC(=O)Cc2ccc(-c3ccccc3)cc2)C1=O    4.84
C=CCCC(=O)O[C@H](C)[C@H]1C(=O)N(C(=O)CCC=C)[C@@H]1OC(C)=O    3.88

Which pIC50 value belongs to `C=CCCC(=O)N1C[C@@H]([C@@H](C)OC(=O)Cc2ccc(-c3ccccc3)cc2)C1=O` ?
5.74

Which pIC50 value belongs to `C=CCCC(=O)O[C@H](C)[C@@H]1CN(C(=O)CCC=C)C1=O` ?
4.63

Which pIC50 value belongs to `C=CCCC(=O)N1C[C@@H]([C@@H](C)OC(=O)CCCc2ccccc2)C1=O` ?
5.39

Which pIC50 value belongs to `C=CCCCC(=O)O[C@H](C)[C@@H]1CN(C(=O)CCC=C)C1=O` ?
5.33
